Assay: Photoluminescence in solution (PL-max., PL quantum efficiency)
Assay type: physicochemical
Conditions: solvent toluene; room temperature, degassed solution
MEASUREMENT TYPE: PLQE

-- ask What does the data say about its PLQE? Entry: Cc1cc2[n+](cc1-c1ccccc1)[Ir-3]13([c]4ccccc4-c4cccc[n+]41)([c]1ccccc1-c1cccc[n+]13)[c]1ccccc1-2 [Ir2, reference compound]
-- reply 0.97

-- ask What does the data say about its PLQE? Entry: c1ccc(-c2cc(-c3ccccc3)cc(-c3cccc(-c4cc[c]5c(c4)-c4cccc[n+]4[Ir-3]546([c]5ccc(-c7cccc(-c8cc(-c9ccccc9)cc(-c9ccccc9)c8)c7)cc5-c5cccc[n+]54)[c]4ccc(-c5cccc(-c7cc(-c8ccccc8)cc(-c8ccccc8)c7)c5)cc4-c4cccc[n+]46)c3)c2)cc1 [Ir1, reference compound]
-- reply 0.97

-- ask What does the data say about its PLQE? Entry: O=C1Oc2cc3cc(c2)OC(=O)c2ccc4[c](c2)[Ir-3]25([c]6cc1ccc6-c1cccc[n+]12)([c]1cc(ccc1-c1cccc[n+]15)C(=O)O3)[n+]1ccccc1-4
-- reply 0.94

-- ask What does the data say about its PLQE? Entry: CN1C(=O)c2ccc3[c](c2)[Ir-3]245([c]6cc(ccc6-c6cccc[n+]62)C(=O)N(C)c2cc1cc(c2)N(C)C(=O)c1ccc([c]4c1)-c1cccc[n+]15)[n+]1ccccc1-3
-- reply 0.95

====

Assay: Oxidation and reduction potentials by CV (HOMO, LUMO)
Type: physicochemical
Settings: Red. in THF, in eV (unit assumed)
For each of the compounds below, state its LUMO.

-- ask What does the data say about its LUMO? Entry: Cc1cc2[n+](cc1-c1ccccc1)[Ir-3]13([c]4ccccc4-c4cccc[n+]41)([c]1ccccc1-c1cccc[n+]13)[c]1ccccc1-2 [Ir2, reference compound]
-- reply −1.71

-- ask What does the data say about its LUMO? Entry: c1ccc(-c2cc(-c3ccccc3)cc(-c3cccc(-c4cc[c]5c(c4)-c4cccc[n+]4[Ir-3]546([c]5ccc(-c7cccc(-c8cc(-c9ccccc9)cc(-c9ccccc9)c8)c7)cc5-c5cccc[n+]54)[c]4ccc(-c5cccc(-c7cc(-c8ccccc8)cc(-c8ccccc8)c7)c5)cc4-c4cccc[n+]46)c3)c2)cc1 [Ir1, reference compound]
-- reply −1.99

-- ask What does the data say about its LUMO? Entry: O=C1Oc2cc3cc(c2)OC(=O)c2ccc4[c](c2)[Ir-3]25([c]6cc1ccc6-c1cccc[n+]12)([c]1cc(ccc1-c1cccc[n+]15)C(=O)O3)[n+]1ccccc1-4 [Ir(L200)]
-- reply −2.64

-- ask What does the data say about its LUMO? Entry: CN1C(=O)c2ccc3[c](c2)[Ir-3]245([c]6cc(ccc6-c6cccc[n+]62)C(=O)N(C)c2cc1cc(c2)N(C)C(=O)c1ccc([c]4c1)-c1cccc[n+]15)[n+]1ccccc1-3 [Ir(L300)]
-- reply −2.29

====

Test: Photoluminescence in solution (PL-max., PL quantum efficiency)
Type: physicochemical
Conditions: solvent toluene; room temperature, degassed solution
For each of the compounds below, state its PL-max..
Please reply with the value in numeric form only.

-- ask What does the data say about its PL-max.? Entry: Cc1cc2[n+](cc1-c1ccccc1)[Ir-3]13([c]4ccccc4-c4cccc[n+]41)([c]1ccccc1-c1cccc[n+]13)[c]1ccccc1-2 [Ir2, reference compound]
-- reply 516

-- ask What does the data say about its PL-max.? Entry: O=C1Oc2cc3cc(c2)OC(=O)c2ccc4[c](c2)[Ir-3]25([c]6cc1ccc6-c1cccc[n+]12)([c]1cc(ccc1-c1cccc[n+]15)C(=O)O3)[n+]1ccccc1-4 [Ir(L200)]
-- reply 552

-- ask What does the data say about its PL-max.? Entry: c1ccc(-c2cc(-c3ccccc3)cc(-c3cccc(-c4cc[c]5c(c4)-c4cccc[n+]4[Ir-3]546([c]5ccc(-c7cccc(-c8cc(-c9ccccc9)cc(-c9ccccc9)c8)c7)cc5-c5cccc[n+]54)[c]4ccc(-c5cccc(-c7cc(-c8ccccc8)cc(-c8ccccc8)c7)c5)cc4-c4cccc[n+]46)c3)c2)cc1 [Ir1, reference compound]
-- reply 513

-- ask What does the data say about its PL-max.? Entry: CN1C(=O)c2ccc3[c](c2)[Ir-3]245([c]6cc(ccc6-c6cccc[n+]62)C(=O)N(C)c2cc1cc(c2)N(C)C(=O)c1ccc([c]4c1)-c1cccc[n+]15)[n+]1ccccc1-3 [Ir(L300)]
-- reply 539
